From: patent US20190002549A1

- experimental-target: T1, recombinant human GM-CSF protein (human, UniProt P04141 18-144)
- T1 construct: Bought recombinant protein (Genscript); also called biotinylated human GM-CSF protein
- T1 sequence (P04141 18-144 limits assumed): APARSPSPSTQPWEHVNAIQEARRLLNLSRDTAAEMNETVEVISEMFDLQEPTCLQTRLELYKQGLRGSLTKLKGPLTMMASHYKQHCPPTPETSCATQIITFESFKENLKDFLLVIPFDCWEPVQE
- method-description: SPR Biacore T200, antibody captured by anti-human Fc, GM-CSF as analyte, 25 C, 1:1 model
readout-kind: kon (M⁻¹ s⁻¹)
The answer is to be given in M⁻¹ s⁻¹; state only the numeric part.

Determine its reported kon: 23F4 chimera (antibody, V domains shown, Human constant regions (captured by anti-human Fc IgG); also called Hu23F4-chimera) VH: QVQLQQSGPELVKPGTSMKISCKTSDYTLTSHYLHWVKQRPGQGLEWIGWIFPGDDKTKYNEKFKGKATLTSDKTSNTAYMQLSSLTSEESAVYFCARGTKYLNWNFDVWGTGTTVTVSS VL: DIVLTQPQKFLSTSVGDRVSVTCKANQNVGTTLAWYQQKPGQSPKALIYSASYRYSGVPDRFTGSGSGTDFTLTISNVQSEDLAEYFCHQYTTYPLTFGGGTKLEIK
1.23e+06
